All figures here come from PubChem BioAssay (NCI).

test system: HOP-92 NSCLC; assay: NCI tumour cell line growth inhibition, 48 h

{"columns": ["molecule", "censoring qualifier", "TGI / µM"],
 "data": [
  ["Cc1c(C(=O)C/C(=N\\O)C(=O)Nc2cc(Cl)c(Cl)cc2Cl)[n+](=O)c2ccccc2n1[O-]", "=", 46.2],
  ["O=C1C=C2C(=NC34CCCCC3C(c3ccccc3)C3=C(c5ccccc5CC3)N24)c2ccccc21 (stereo unspecified)", ">", 10],
  ["Cc1nc2cccc(F)c2c(=O)n1C1CCCCNC1=O (stereo unspecified)", ">", 10],
  ["C1C[OH+]CC[OH+]CCNCC[OH+]CC[OH+]CCN1.N.[Cl-].[Pt+4]", "=", 58.3],
  ["O=C(NCCCCCCNC(=O)n1cc(F)c(=O)[nH]c1=O)NCCCOCCOCCOCCOCCOCCOCCOCCOCCOCCOCCOCCOCCOCCOCCOCCOCCOCCOCCOCCOCCOCCCNC(=O)C(O)C(O)C(O)C(O)CO (stereo unspecified)", ">", 100],
  ["CC1(C)CC(=O)c2c(C(F)(F)F)nn(-c3ccc(C(N)=O)c(NC4CCC(OC(=O)CN)CC4)c3)c2C1 (stereo unspecified)", "=", 1.04]
]}

----------
test system: MDA-N; test: NCI tumour cell line growth inhibition, 48 h
Collected TGI values appear next to each entry.
measurement type: TGI (µM)

{"columns": ["molecule", "measurement type", "measurement units", "censoring qualifier", "reading"],
 "data": [
  ["O=[N+]([O-])C(C(Cl)=C(Cl)Cl)=C(N(Cc1ccccc1)Cc1ccccc1)N(Cc1ccccc1)Cc1ccccc1", "TGI", "µM", ">", 100],
  ["N=c1oc2cc(O)ccc2cc1C(=O)NCc1ccccc1", "TGI", "µM", "=", 49.7],
  ["COc1cc(/C=C/C(=O)c2ccc(NS(=O)(=O)c3cc([N+](=O)[O-])ccc3C)cc2)cc(OC)c1OC", "TGI", "µM", "=", 13],
  ["CCOC(=O)N(Cc1cccs1)c1cc(OC)c(OC)c(OC)c1", "TGI", "µM", "=", 90.8],
  ["C=CC/C=C/Cc1csc(C(C)(C)C(O)C/C=C/C(=C)CCNC(=O)OC)n1 (stereo not given)", "TGI", "µM", ">", 100]
]}

----------
tested on: HCT-116 colon; test: NCI tumour cell line growth inhibition, 48 h; in the data active = GI50 below about 0.43 µM; inactive = the rest
Outcome codes: 1 for active, -1 for inactive

{"columns": ["compound", "category"],
 "data": [
  ["CC(CCC(=O)O)[C@H]1CCC2[C@@H]3CC[C@@H]4CC(O)CC[C@]4(C)C3CC[C@@]21C (stereo partly drawn)", -1],
  ["O=c1cc(-c2ccccc2)[nH]c2ccccc12", -1],
  ["Nc1nc2c(c3ncncc13)C(c1cccc(C(F)(F)F)c1)Cc1ncncc1-2 (stereo not drawn)", -1],
  ["CC1(C)CC(=O)c2c(C(F)(F)F)nn(-c3ccc(C(N)=O)c(NC4CCC(OC(=O)CN)CC4)c3)c2C1 (stereo not drawn)", 1],
  ["CC1SC(c2ccccc2)N(CCc2cccs2)C1=O (stereo not drawn)", -1],
  ["O=C1/C(=C\\c2c[nH]c3ccccc23)c2ccccc2N1c1c(Cl)cccc1Cl", -1],
  ["C=CCC[CH2][Sn]([c]1ccccc1)([c]1ccccc1)[c]1ccccc1", -1],
  ["CCCCCCCCCCCCCCCCN1CC2CCCCC2C1 (stereo not drawn)", -1]
]}
